Listing: pIC50 of selected compounds
# TARGET_OF_ASSAY: HCV NS3/4A protease (Hepatitis C virus, UniProt P26662)
# Sequence (P26662 1027-1208, other chains not shown): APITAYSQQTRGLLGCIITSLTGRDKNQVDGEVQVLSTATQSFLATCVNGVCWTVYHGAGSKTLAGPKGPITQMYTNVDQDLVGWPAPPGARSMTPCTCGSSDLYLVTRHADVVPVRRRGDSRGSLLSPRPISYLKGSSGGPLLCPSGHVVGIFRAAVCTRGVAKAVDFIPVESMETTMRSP
# TEST_DESCRIPTION: HCV NS3/4A protease fluorimetric activity assay
pIC50: −log10 of the molar value.

Query: GET /values?readout=pIC50&system=HCV NS3/4A protease (Hepatitis C virus, UniProt P26662)&item= COc1ccc(CC(CC(=O)O)C(=O)O)cc1OC (centres unmarked)
Reply: > 5.00

Query: Query pIC50 on HCV NS3/4A protease (Hepatitis C virus, UniProt P26662) for COC[C@@H](Cc1ccc(OC)c(OC)c1)[C@@H](COC)Cc1ccc(OC)c(OC)c1 [phyllanthin, reference compound]
Reply: ~4.30
